Assay Name: self-splicing fitness, log relative to wild type (ln ratio); higher = more splicing; Tetrahymena group I intron in knt gene, E. coli kanamycin selection, DiMSum; sequences stand for … in CUCUCU…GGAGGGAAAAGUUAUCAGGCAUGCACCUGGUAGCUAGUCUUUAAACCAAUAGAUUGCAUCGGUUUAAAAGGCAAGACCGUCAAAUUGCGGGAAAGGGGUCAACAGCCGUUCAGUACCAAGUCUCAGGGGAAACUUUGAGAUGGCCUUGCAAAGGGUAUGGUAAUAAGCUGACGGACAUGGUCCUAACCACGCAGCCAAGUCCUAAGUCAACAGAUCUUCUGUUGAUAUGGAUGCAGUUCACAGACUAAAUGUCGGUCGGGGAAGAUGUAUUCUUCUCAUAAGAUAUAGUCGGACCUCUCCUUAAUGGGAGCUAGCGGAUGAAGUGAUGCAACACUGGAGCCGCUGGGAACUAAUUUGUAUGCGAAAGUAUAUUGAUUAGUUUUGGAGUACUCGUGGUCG;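 note: selection with 25 µg/mL kanamycin versus none on LB agar overnight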
Experimental Conditions: 37 °C
// self-splicing fitness (ln) lookup, one value per entry

As a guide, the following entries are already answered.
GCGGAGCAAUAUUACGCGAU ... -2.18
CACAAGCAAUAUUACGUGAA ... -2.39

Input line: Entry under review: "CCAGAGCAAUAUUACGCUAA" . Reported self-splicing fitness (ln)?
Output line: -2.57

Input line: Entry under review: "CAGAAGCAAUAUUACGCUUA" . Reported self-splicing fitness (ln)?
Output line: -1.9

Input line: Entry under review: "CGCCAGCAAUAUUACGUAGG" . Reported self-splicing fitness (ln)?
Output line: -1.32

====

Assay Name: self-splicing fitness, log relative to wild type (ln ratio); higher = more splicing; Tetrahymena group I intron in knt gene, E. coli kanamycin selection, DiMSum; sequences stand for … in CUCUCU…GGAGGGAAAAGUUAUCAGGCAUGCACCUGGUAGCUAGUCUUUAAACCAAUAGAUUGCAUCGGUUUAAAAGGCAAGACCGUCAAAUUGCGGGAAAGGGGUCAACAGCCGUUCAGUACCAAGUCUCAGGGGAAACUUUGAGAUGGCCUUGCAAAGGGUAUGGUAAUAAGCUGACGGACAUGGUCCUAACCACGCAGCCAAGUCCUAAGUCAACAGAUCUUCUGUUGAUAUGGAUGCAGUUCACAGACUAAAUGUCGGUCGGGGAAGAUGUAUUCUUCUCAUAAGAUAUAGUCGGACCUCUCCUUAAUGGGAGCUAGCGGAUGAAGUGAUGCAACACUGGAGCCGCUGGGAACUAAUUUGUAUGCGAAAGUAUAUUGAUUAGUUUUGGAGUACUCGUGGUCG
Experimental Conditions: 30 °C
Note to self: values exactly at -1 are t. So self-splicing fitness (ln) at or above -1 is t, below is f.

Study these solved cases before continuing.
CCAUAGCAAUAUUACGGCCG ... t
GUAAAGCAAUAUUACGCCCA ... t
AGGUAGCAAUAUUACGUUCA ... t
CGGUAGCAAUAUUACGAGUG ... t
AUCGAGCAAUAUUACGUGAC ... f

Input line: Record "CAGGAGCAAUAUUACGCGAU" ; criterion: self-splicing fitness (ln) no lower than -1. Met?
Output line: f

Input line: Record "UCUAAGCAAUAUUACGGGUG" ; criterion: self-splicing fitness (ln) no lower than -1. Met?
Output line: f

Input line: Record "CGGUAGCAAUAUUACGUCGU" ; criterion: self-splicing fitness (ln) no lower than -1. Met?
Output line: f

Input line: Record "AAGUAGCAAUAUUACGACUU" ; criterion: self-splicing fitness (ln) no lower than -1. Met?
Output line: t

Input line: Record "CGCCAGCAAUAUUACGUUUG" ; criterion: self-splicing fitness (ln) no lower than -1. Met?
Output line: f

Input line: Record "CCGCAGCAAUAUUACGAAGG" ; criterion: self-splicing fitness (ln) no lower than -1. Met?
Output line: f

Input line: Record "CCACAGCAAUAUUACGGUCA" ; criterion: self-splicing fitness (ln) no lower than -1. Met?
Output line: f

====

Assay Name: self-splicing fitness, log relative to wild type (ln ratio); higher = more splicing; Tetrahymena group I intron in knt gene, E. coli kanamycin selection, DiMSum; sequences stand for … in CUCUCU…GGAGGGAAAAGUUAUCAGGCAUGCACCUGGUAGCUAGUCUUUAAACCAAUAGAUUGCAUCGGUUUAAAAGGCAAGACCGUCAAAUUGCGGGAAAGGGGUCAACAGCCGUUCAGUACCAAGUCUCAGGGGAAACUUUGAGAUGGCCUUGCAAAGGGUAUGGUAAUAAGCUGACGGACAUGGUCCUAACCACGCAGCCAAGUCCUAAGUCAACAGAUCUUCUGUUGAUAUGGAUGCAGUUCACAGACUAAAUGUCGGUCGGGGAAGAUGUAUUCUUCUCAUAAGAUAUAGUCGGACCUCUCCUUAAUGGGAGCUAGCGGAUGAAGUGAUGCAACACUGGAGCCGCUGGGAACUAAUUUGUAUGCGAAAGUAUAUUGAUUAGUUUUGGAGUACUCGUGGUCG
Experimental Conditions: 30 °C
// self-splicing fitness (ln) lookup, one value per entry
Write the value as a bare number.

As a guide, the following entries are already answered.
AUUAAGCAAUAUUACGCAAU ... -1.74
GUGGAGCAAUAUUACGUGGG ... -2.28
GACAAGCAAUAUUACGCUGA ... -2.53
GAGGAGCAAUAUUACGAGCA ... -3.52
GAGUAGCAAUAUUACGUUAA ... -3.94
GUCUAGCAAUAUUACGUCCG ... -2.96
CACUAGCAAUAUUACGUGUG ... -3.71
CAGCAGCAAUAUUACGAUAU ... -3.29
UACGAGCAAUAUUACGCCCA ... -2.24
ACAGAGCAAUAUUACGAUUC ... -2.88

We next turn to a different sequence, shown below.
Input line: Entry under review: "ACUGAGCAAUAUUACGGCCU" . Reported self-splicing fitness (ln)?
Output line: -2.58

====

// self-splicing fitness (ln) lookup, one value per entry
Assay Name: self-splicing fitness, log relative to wild type (ln ratio); higher = more splicing; Tetrahymena group I intron in knt gene, E. coli kanamycin selection, DiMSum; sequences stand for … in CUCUCU…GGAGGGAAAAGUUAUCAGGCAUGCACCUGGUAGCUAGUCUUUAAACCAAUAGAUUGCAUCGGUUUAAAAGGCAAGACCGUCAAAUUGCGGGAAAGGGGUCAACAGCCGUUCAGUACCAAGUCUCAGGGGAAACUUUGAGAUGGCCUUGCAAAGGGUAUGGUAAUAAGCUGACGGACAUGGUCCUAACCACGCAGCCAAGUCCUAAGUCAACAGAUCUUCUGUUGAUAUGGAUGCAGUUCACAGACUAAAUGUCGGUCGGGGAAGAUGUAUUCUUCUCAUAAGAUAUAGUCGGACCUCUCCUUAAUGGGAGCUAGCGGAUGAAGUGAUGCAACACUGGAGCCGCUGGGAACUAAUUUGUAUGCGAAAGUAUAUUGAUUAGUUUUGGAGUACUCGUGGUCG
Experimental Conditions: 37 °C
Write the value as a bare number.

As a guide, the following entries are already answered.
AGGAAGCAAUAUUACGGUCU ... 0.265
CCAUAGCAAUAUUACGCGUA ... -2.75
ACCGAGCAAUAUUACGUGCG ... -1.37
CUCCAGCAAUAUUACGUAAU ... -3.21
CCAUAGCAAUAUUACGACUU ... -3.03

Input line: Entry under review: "UGUUAGCAAUAUUACGUUAU" . Reported self-splicing fitness (ln)?
Output line: -2.67

====

// self-splicing fitness (ln) lookup, one value per entry
Assay Name: self-splicing fitness, log relative to wild type (ln ratio); higher = more splicing; Tetrahymena group I intron in knt gene, E. coli kanamycin selection, DiMSum; sequences stand for … in CUCUCU…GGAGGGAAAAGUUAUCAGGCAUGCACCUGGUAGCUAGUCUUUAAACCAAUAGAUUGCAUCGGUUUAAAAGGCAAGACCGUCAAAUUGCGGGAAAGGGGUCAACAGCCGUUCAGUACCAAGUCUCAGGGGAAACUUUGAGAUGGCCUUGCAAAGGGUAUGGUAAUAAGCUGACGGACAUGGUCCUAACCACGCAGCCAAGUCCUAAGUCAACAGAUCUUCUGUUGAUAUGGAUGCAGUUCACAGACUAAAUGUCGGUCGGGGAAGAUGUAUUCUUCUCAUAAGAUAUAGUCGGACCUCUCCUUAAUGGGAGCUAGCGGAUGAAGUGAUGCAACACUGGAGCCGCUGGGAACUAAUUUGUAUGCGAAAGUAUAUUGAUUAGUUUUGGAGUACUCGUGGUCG
Experimental Conditions: 37 °C

CAAGAGCAAUAUUACGGCGA ... -3.24
AGCGAGCAAUAUUACGUGGG ... -3.19
ACAAAGCAAUAUUACGAUUA ... -0.593
AUAGAGCAAUAUUACGUUCG ... -0.257
GACGAGCAAUAUUACGUCAG ... -1.66

Input line: Entry under review: "UAGUAGCAAUAUUACGGUAU" . Reported self-splicing fitness (ln)?
Output line: -2.39
